biological target: T1, Human PD-L1 antigen (human, UniProt Q9NZQ7 19-238); test: BLI (Octet), His-tagged VHH on anti-penta-His tips, soluble human PD-L1
T1 construct: also called PD-L1 protein
T1 sequence (Q9NZQ7 19-238 limits assumed): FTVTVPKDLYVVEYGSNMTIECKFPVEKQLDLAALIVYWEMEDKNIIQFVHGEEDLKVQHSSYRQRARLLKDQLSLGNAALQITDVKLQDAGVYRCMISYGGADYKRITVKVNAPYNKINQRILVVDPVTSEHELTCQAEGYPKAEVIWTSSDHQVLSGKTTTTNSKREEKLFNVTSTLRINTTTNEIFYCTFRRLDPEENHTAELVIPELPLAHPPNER
property: koff (s⁻¹)

a. PL16 (VHH, not shown: C-terminal His-tag) VHH: QVQLVESGGGLVQAGGSLRLSCAFSGGTFLTYSLGWFRQGPGKEREFVASINWSGYMTSYVDSVKGRFTISRDNAKNTVYLQMNSLKPEDTALYYCAAARTAIAAKRSSEFDYWGQGAQVTVSS
b. PL17 (VHH, not shown: C-terminal His-tag) VHH: QVQLVESGGGLVQAGGSLRLSCAASGRTFNTYDMGWFRRTPGKEREFVAGMDWNTINTYYADSVKGRFTISRDNAKNTVYLQMRSLKPEDTAVYYCAAGIRSTAIITGQADYWGQGTQVTVSS
Hi! Which is lower in terms of koff, the first one a or the second one b ? Identify your selection by its label.
b
